GI50 by entry:
tested on: RXF 393; assay: NCI tumour cell line growth inhibition, 48 h
Active and inactive are the calls of the source. Cut-off read from the data, not from the text of the source: active = GI50 up to about 1.1 µM and inactive = higher.

// known answers, use as guide
> print(dat)
                                   compound  value.kind           test.value
1  CC1/C=C/[C@@]2(C)CCC(C(C)(C)O)C2C(O)C[C@](C)(O)/C=C/C1 (stereo partly specified)        GI50  > 100 µM (inactive)
2  O=C1C(/N=N/c2ccc(-c3nc4ccccc4[nH]3)cc2)NC(=S)N1c1ccccc1 (stereo unspecified)        GI50   13.4 µM (inactive)

-- ask Read the entry C1CNCCNCCN1 and write its reported GI50.
-- reply > 100 µM (inactive)

-- ask Check the records and state GI50 for O=C(CCc1ccc(O)c(O)c1)NCCc1ccc(O)c(O)c1
-- reply > 100 µM (inactive)

-- ask Answer with reported GI50 of Nc1ccn([C@H]2CO[C@@H](CO)O2)c(=O)n1
-- reply 1.83 µM (inactive)

-- ask Return the recorded GI50 value; entry: COc1ccccc1NC(=O)C1=C(C)NC(C)=C(C(=O)Nc2ccccc2OC)C1c1ccc(N(C)C)cc1
-- reply 21.7 µM (inactive)

-- ask Give recorded GI50. Cc1ccc(C(=O)C(C)N)cc1C (stereo unspecified)
-- reply > 100 µM (inactive)

-- ask Look up and report measured GI50 for this entry: CCOc1ccc(/C=C(\Cl)c2ccc(OC)c(OC)c2)cc1
-- reply 12.4 µM (inactive)

-- ask Respond only with GI50 recorded for CCC1C(NC(=O)OC)C(=O)N1[C@@H](C)c1ccccc1 (stereo partly specified)
-- reply > 100 µM (inactive)

-- ask Please list GI50 recorded for the compound Nc1nc(=O)c2cc(NCc3ccc(C(=O)NC(CCC(=O)O)C(=O)O)cc3)ccc2[nH]1 (stereo unspecified)
-- reply > 100 µM (inactive)

-- ask State, in one line, measured GI50 of NNC(=O)c1c(Cl)c(Cl)c(Cl)c(Cl)c1-c1nc2ccccc2[nH]1
-- reply 3.49 µM (inactive)
